biological target: T1, recombinant human VEGF165 (human, UniProt P15692-4 27-191, biotinylated in the competition assays); experiment: SPR Biacore, immobilised hVEGF165, two state reaction model
T1 construct: Bought protein; also called hVEGF165; rhVEGF165
T1 sequence (P15692 other isoform, or with tags, fused parts or gaps): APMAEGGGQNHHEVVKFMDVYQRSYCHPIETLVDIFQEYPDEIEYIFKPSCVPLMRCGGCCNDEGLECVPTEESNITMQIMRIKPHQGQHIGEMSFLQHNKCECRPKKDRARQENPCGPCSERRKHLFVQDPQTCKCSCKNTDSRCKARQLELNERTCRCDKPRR
Could you please report measured pKd for the items listed next?
Answers are plain numbers, as −log10 of the molar value.

{"Binder": "VEGFBII025 (VHH, not shown: small tags and cut ends, Bivalent anti-VEGF VHH; also called VEGFBII10E07-40GS-23B04) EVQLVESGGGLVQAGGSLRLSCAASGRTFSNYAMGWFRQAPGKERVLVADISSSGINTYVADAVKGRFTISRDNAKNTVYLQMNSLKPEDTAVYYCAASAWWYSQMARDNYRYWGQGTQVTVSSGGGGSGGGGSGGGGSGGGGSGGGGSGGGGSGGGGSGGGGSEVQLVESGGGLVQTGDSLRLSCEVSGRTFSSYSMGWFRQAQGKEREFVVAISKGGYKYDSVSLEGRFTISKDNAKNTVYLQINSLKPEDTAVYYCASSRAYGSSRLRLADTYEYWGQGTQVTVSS", "pKd": 8.96}
{"Binder": "VEGFBII021 (VHH, not shown: small tags and cut ends, Bivalent (heterodimeric) anti-VEGF VHH; also called VEGFBII23B04-40GS-5B05) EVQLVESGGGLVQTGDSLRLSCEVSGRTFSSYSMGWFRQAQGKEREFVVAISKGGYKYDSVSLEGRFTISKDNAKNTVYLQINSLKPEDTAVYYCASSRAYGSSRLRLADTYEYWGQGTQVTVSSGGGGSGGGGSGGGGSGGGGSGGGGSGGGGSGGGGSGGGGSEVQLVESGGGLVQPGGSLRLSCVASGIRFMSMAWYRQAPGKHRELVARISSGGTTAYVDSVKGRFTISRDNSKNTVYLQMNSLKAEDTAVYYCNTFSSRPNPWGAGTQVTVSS", "pKd": 10.15}
{"Binder": "VEGFBII010 (VHH, not shown: small tags and cut ends, Homodimeric bivalent anti-VEGF VHH; also called VEGFBII23B04-35GS-23B04) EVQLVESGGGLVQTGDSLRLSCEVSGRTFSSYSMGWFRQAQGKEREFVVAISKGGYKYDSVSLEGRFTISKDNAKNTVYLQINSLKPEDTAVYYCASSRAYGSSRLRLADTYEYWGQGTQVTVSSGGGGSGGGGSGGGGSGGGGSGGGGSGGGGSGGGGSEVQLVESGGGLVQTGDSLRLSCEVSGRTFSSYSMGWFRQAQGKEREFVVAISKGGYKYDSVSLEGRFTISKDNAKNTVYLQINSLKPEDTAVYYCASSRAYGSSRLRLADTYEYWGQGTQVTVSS", "pKd": 9.80}
{"Binder": "VEGFBII023 (VHH, not shown: small tags and cut ends, Bivalent anti-VEGF VHH; also called VEGFBII23B04-40GS-10E07) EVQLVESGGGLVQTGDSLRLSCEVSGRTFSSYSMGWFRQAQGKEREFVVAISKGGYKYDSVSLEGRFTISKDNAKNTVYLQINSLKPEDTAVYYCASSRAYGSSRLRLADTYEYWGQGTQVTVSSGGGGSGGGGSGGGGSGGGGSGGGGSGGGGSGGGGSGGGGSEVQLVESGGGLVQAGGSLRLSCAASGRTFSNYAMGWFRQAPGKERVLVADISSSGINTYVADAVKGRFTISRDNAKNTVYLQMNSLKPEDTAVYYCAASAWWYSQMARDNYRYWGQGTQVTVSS", "pKd": 9.16}
{"Binder": "VEGFBII024 (VHH, not shown: small tags and cut ends, Bivalent anti-VEGF VHH; also called VEGFBII23B04-40GS-86H09) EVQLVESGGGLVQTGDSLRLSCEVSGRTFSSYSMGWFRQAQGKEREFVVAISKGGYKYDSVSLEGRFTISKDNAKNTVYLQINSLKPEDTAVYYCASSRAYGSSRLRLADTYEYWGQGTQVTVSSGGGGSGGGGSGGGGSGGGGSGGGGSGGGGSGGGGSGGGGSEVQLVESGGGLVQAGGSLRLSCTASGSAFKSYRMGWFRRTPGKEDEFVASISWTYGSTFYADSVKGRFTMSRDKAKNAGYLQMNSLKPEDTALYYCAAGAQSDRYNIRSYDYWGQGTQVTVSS", "pKd": 9.33}

# ---- query binder ----
Input: Endpoint output: pKd of VEGFBII022 (VHH, not shown: small tags and cut ends, Bivalent (heterodimeric) anti-VEGF VHH; also called VEGFBII23B04-9GS-5B05) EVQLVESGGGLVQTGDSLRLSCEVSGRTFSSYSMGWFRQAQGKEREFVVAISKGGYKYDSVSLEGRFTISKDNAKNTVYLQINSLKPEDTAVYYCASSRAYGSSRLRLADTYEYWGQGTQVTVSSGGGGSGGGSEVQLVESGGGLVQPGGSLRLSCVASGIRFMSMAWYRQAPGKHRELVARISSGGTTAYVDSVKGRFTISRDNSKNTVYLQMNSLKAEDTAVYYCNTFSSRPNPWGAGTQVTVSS . Value?
Output: 9.85
